# Tested on: SU-DHL-8
# TEST NAME: Antiproliferative activity against human SU-DHL-8 cells assessed as inhibition of cell growth incubated for 72 hrs by cell-titer glo assay
# Assay type: functional, cell-based
# CONDITIONS USED: SU-DHL-8, 72 h
METRIC: IC50 (nM)
API: value field is a number in nM; no unit string.

Notebook entry, SU-DHL-8 assay: IC50 of CN1CCN(c2ccc(OC(F)(F)F)c(Nc3ncc4c(n3)-c3c(c(C(N)=O)nn3CCO)CC4)c2)CC1 [ONVANSERTIB] = ?
31

* * *

# STUDY SYSTEM: RAC-alpha serine/threonine-protein kinase (Homo sapiens)
# Sequence (P31749 whole entry): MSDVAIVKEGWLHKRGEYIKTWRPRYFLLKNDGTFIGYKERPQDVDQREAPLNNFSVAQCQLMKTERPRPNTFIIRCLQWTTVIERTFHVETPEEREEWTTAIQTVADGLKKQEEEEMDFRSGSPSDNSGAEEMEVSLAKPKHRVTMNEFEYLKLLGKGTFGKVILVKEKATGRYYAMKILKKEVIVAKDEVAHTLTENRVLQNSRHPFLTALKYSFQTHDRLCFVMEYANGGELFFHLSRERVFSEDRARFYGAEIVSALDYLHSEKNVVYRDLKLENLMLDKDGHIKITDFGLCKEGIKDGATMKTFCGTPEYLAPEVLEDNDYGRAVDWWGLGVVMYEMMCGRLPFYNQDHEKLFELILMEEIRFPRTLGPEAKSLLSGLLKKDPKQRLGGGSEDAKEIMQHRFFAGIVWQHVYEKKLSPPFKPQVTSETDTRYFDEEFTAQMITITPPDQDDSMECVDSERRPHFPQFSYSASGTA
# TEST NAME: Inhibition of AKT1 (unknown origin) in presence of [gamma-33P]ATP
METRIC: IC50

// IC50 lookup, key: CN1CCN(c2ccc(OC(F)(F)F)c(Nc3ncc4c(n3)-c3c(c(C(N)=O)nn3CCO)CC4)c2)CC1 [ONVANSERTIB]
> 10 µM

* * *

# Test system: PC-3
# TEST NAME: Antiproliferative activity against human PC-3 cells assessed as inhibition of cell growth incubated for 72 hrs by cell-titer glo assay
# Format: functional, cell-based
# CONDITIONS USED: PC-3, 72 h
METRIC: IC50 (nM)
API: value field is a number in nM; no unit string.

// IC50 lookup, key: `CN1CCN(c2ccc(OC(F)(F)F)c(Nc3ncc4c(n3)-c3c(c(C(N)=O)nn3CCO)CC4)c2)CC1`
152

* * *

# Test system: NALM-6
# TEST NAME: Antiproliferative activity against human NALM-6 cells assessed as inhibition of cell growth incubated for 72 hrs by cell-titer glo assay
# Type: functional, cell-based
# CONDITIONS USED: NALM-6, 72 h
METRIC: IC50 (nM)
API: value field is a number in nM; no unit string.

// IC50 lookup, key: `CN1CCN(c2ccc(OC(F)(F)F)c(Nc3ncc4c(n3)-c3c(c(C(N)=O)nn3CCO)CC4)c2)CC1`
61

* * *

# Tested on: SK-LU-1
# TEST NAME: Antiproliferative activity against human SK-LU-1 cells assessed as inhibition of cell growth incubated for 72 hrs by cell-titer glo assay
# Format: functional, cell-based
# CONDITIONS USED: SK-LU-1, 72 h
METRIC: IC50 (nM)
API: value field is a number in nM; no unit string.

// IC50 lookup, key: CN1CCN(c2ccc(OC(F)(F)F)c(Nc3ncc4c(n3)-c3c(c(C(N)=O)nn3CCO)CC4)c2)CC1 [ONVANSERTIB]
443

* * *

# System: NCI-H1650
# TEST NAME: Antiproliferative activity against human NCI-H1650 cells assessed as inhibition of cell growth incubated for 72 hrs by cell-titer glo assay
# Type: functional, cell-based
# CONDITIONS USED: NCI-H1650, 72 h
METRIC: pIC50
Please treat pIC50 as minus the base-10 logarithm of the molar concentration.

// pIC50 lookup, key: CN1CCN(c2ccc(OC(F)(F)F)c(Nc3ncc4c(n3)-c3c(c(C(N)=O)nn3CCO)CC4)c2)CC1 [ONVANSERTIB]
5.62

* * *

# Test system: SR
# TEST NAME: Antiproliferative activity against human SR cells assessed as inhibition of cell growth incubated for 72 hrs by cell-titer glo assay
# Assay type: functional, cell-based
METRIC: IC50 (nM)
API: value field is a number in nM; no unit string.

// IC50 lookup, key: `CN1CCN(c2ccc(OC(F)(F)F)c(Nc3ncc4c(n3)-c3c(c(C(N)=O)nn3CCO)CC4)c2)CC1`
47
